These measurements were taken from paper PMC3218832.

# target-of-assay: p52p52 homodimer (Homo sapiens, UniProt Q00653 4-332)
# Sequence: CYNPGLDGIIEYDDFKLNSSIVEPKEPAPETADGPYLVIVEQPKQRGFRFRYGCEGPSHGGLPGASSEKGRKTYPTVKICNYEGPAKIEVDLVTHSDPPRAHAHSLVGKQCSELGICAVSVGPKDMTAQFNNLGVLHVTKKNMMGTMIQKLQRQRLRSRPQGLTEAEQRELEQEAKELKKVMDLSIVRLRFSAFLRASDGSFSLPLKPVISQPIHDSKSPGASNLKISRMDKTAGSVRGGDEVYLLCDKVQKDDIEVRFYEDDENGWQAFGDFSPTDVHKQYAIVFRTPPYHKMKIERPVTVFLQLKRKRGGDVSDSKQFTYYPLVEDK
# method-description: protein binding microarray; high values mean tight binding
# measurement-conditions: dsDNA, one strand shown
quantity-kind: binding signal (z-score)
Quick note: give the figure in z-score, leave out the unit.

See these solved cases before continuing.
sequence-data	binding signal / z-score
GAGGGCCTCCT	-0.564
AAGGGGGCCCC	0.786
AGGAGAACCCT	-0.426
CAAGTCACCCC	-0.2
GGAAGCCTCCC	-0.595

Entry CAGAGATTCCT : reported binding signal = ?
-0.492

Entry AGGTTTTCCCC : reported binding signal = ?
3.16

Entry CAAGGTATCCC : reported binding signal = ?
-0.296

Entry GAGTTTCTCCT : reported binding signal = ?
-0.546

Entry AAAAGGATCCT : reported binding signal = ?
-0.703

Entry AAGGATACCCC : reported binding signal = ?
0.189

* * *

# target-of-assay: C-Rel subunit;p50 subunit (Homo sapiens;Homo sapiens, UniProt Q04864;P19838 1-285;7-356)
# Sequence (Q04864 1-285, chain 1 of 2): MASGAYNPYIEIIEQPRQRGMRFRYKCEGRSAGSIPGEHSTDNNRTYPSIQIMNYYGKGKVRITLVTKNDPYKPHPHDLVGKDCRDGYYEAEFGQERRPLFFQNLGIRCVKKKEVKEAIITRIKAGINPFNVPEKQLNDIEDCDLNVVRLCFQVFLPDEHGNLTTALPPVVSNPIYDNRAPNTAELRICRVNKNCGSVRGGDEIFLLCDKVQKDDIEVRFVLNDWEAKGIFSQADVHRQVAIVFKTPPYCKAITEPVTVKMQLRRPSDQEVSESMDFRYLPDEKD
# Sequence (P19838 7-356, chain 2 of 2): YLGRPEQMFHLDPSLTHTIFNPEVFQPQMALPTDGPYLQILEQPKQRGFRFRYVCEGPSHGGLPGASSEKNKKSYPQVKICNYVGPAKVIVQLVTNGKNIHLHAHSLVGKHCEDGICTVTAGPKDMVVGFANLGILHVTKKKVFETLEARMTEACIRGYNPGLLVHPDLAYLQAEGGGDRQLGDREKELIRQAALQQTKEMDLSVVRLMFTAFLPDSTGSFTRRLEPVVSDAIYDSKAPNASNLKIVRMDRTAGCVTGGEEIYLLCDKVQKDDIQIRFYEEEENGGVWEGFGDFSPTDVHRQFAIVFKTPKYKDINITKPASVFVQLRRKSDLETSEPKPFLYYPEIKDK
# method-description: protein binding microarray; high values mean tight binding
# measurement-conditions: dsDNA, one strand shown
The reader will find reported binding signal values listed item by item below.
Quick note: give the figure in z-score, leave out the unit.

See these solved cases before continuing.
sequence-data	target-of-assay	readout-units	binding signal
AAAGTGATCCT	C-Rel subunit;p50 subunit (Homo sapiens;Homo sapiens, UniProt Q04864;P19838 1-285;7-356)	z-score	-1.55
CAGGATCCCCT	C-Rel subunit;p50 subunit (Homo sapiens;Homo sapiens, UniProt Q04864;P19838 1-285;7-356)	z-score	1.34
CAAGTTGTCCC	C-Rel subunit;p50 subunit (Homo sapiens;Homo sapiens, UniProt Q04864;P19838 1-285;7-356)	z-score	0.778
GAAGACACCCC	C-Rel subunit;p50 subunit (Homo sapiens;Homo sapiens, UniProt Q04864;P19838 1-285;7-356)	z-score	-0.163
GGGTACTCCCC	C-Rel subunit;p50 subunit (Homo sapiens;Homo sapiens, UniProt Q04864;P19838 1-285;7-356)	z-score	1.45
GAGAGTATCCC	C-Rel subunit;p50 subunit (Homo sapiens;Homo sapiens, UniProt Q04864;P19838 1-285;7-356)	z-score	-0.656
CAGGTCGCCCC	C-Rel subunit;p50 subunit (Homo sapiens;Homo sapiens, UniProt Q04864;P19838 1-285;7-356)	z-score	0.016
GAAAAAACCCC	C-Rel subunit;p50 subunit (Homo sapiens;Homo sapiens, UniProt Q04864;P19838 1-285;7-356)	z-score	1.45
GAATATCCCCC	C-Rel subunit;p50 subunit (Homo sapiens;Homo sapiens, UniProt Q04864;P19838 1-285;7-356)	z-score	1.33

The record that follows has no binding signal shown yet.
Record lookup: for C-Rel subunit;p50 subunit (Homo sapiens;Homo sapiens, UniProt Q04864;P19838 1-285;7-356), what binding signal belongs to CAGTTACCCCC ?
1.01

* * *

# target-of-assay: p52p52 homodimer (Homo sapiens, UniProt Q00653 4-332)
# Sequence: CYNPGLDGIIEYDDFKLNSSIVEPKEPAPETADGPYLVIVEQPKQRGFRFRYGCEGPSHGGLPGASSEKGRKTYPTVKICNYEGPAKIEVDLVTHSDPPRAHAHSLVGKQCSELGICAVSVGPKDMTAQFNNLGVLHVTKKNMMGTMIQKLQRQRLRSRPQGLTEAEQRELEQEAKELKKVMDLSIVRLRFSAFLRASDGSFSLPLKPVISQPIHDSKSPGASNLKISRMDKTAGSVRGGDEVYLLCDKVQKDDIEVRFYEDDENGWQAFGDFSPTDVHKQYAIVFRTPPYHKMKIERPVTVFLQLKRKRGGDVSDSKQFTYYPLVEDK
# method-description: protein binding microarray; high values mean tight binding
# measurement-conditions: dsDNA, one strand shown
The reader will find reported binding signal values listed item by item below.
Quick note: give the figure in z-score, leave out the unit.

sequence-data	binding signal [z-score]
AGAGGAATCCC	0.335
CGAGGCTTCCT	-0.827
CAAGATCTCCT	-0.744
AGGTACGCCCC	0.402
AAAGGAGTCCC	0.569

Record lookup: for p52p52 homodimer (Homo sapiens, UniProt Q00653 4-332), what binding signal belongs to GAGTTGGCCCT ?
-0.495

Record lookup: for p52p52 homodimer (Homo sapiens, UniProt Q00653 4-332), what binding signal belongs to CAATTTATCCT ?
-0.566

Record lookup: for p52p52 homodimer (Homo sapiens, UniProt Q00653 4-332), what binding signal belongs to GGGATCGTCCT ?
0.0256

Record lookup: for p52p52 homodimer (Homo sapiens, UniProt Q00653 4-332), what binding signal belongs to CGGGAGATCCT ?
0.164

Record lookup: for p52p52 homodimer (Homo sapiens, UniProt Q00653 4-332), what binding signal belongs to CGATAATTCCC ?
0.738

Record lookup: for p52p52 homodimer (Homo sapiens, UniProt Q00653 4-332), what binding signal belongs to CGGGGCATCCT ?
0.516

Record lookup: for p52p52 homodimer (Homo sapiens, UniProt Q00653 4-332), what binding signal belongs to AGGGGATCCCT ?
2.11

* * *

# target-of-assay: RELB subunit;p52 subunit (Homo sapiens;Homo sapiens, UniProt Q01201;Q00653 120-401;4-332)
# Sequence 1: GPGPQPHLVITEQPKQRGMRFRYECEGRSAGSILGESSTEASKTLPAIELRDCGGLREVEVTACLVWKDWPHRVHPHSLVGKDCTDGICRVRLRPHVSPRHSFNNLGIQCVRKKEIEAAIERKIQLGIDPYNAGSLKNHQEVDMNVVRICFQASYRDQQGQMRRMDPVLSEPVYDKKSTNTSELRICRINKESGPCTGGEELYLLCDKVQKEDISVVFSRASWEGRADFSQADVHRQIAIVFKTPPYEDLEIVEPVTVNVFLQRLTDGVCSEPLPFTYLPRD
# Sequence 2: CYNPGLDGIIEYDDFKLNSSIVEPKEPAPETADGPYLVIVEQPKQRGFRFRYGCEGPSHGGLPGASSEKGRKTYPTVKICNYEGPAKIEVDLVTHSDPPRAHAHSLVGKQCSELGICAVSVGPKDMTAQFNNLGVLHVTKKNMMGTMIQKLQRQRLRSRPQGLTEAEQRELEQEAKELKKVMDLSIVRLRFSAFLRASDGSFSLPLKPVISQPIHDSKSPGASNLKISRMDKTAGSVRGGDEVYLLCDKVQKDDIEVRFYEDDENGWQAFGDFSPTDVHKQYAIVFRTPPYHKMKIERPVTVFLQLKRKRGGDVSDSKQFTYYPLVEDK
# method-description: protein binding microarray; high values mean tight binding
# measurement-conditions: dsDNA, one strand shown
quantity-kind: binding signal (z-score)
Quick note: give the figure in z-score, leave out the unit.

See these solved cases before continuing.
sequence-data	binding signal, z-score
GGGTTCGTCCC	0.438
GGGGTTGTCCC	1.88
CGATGTACCCC	0.491
AAGGTATTCCT	-0.266
GGGTTATCCCC	2.13

Record lookup: for RELB subunit;p52 subunit (Homo sapiens;Homo sapiens, UniProt Q01201;Q00653 120-401;4-332), what binding signal belongs to AGAAGCATCCC ?
-0.776

Record lookup: for RELB subunit;p52 subunit (Homo sapiens;Homo sapiens, UniProt Q01201;Q00653 120-401;4-332), what binding signal belongs to AAATAAACCCT ?
-0.0813

Record lookup: for RELB subunit;p52 subunit (Homo sapiens;Homo sapiens, UniProt Q01201;Q00653 120-401;4-332), what binding signal belongs to CGAAGCATCCT ?
-1.02

Record lookup: for RELB subunit;p52 subunit (Homo sapiens;Homo sapiens, UniProt Q01201;Q00653 120-401;4-332), what binding signal belongs to CAGTAGGTCCC ?
-0.117

Record lookup: for RELB subunit;p52 subunit (Homo sapiens;Homo sapiens, UniProt Q01201;Q00653 120-401;4-332), what binding signal belongs to AAGGATATCCT ?
-0.859

Record lookup: for RELB subunit;p52 subunit (Homo sapiens;Homo sapiens, UniProt Q01201;Q00653 120-401;4-332), what binding signal belongs to GAGTTGTTCCC ?
-0.463

Record lookup: for RELB subunit;p52 subunit (Homo sapiens;Homo sapiens, UniProt Q01201;Q00653 120-401;4-332), what binding signal belongs to AAGAGGCTCCC ?
-0.714

Record lookup: for RELB subunit;p52 subunit (Homo sapiens;Homo sapiens, UniProt Q01201;Q00653 120-401;4-332), what binding signal belongs to AGGGGAGTCCT ?
0.881

Record lookup: for RELB subunit;p52 subunit (Homo sapiens;Homo sapiens, UniProt Q01201;Q00653 120-401;4-332), what binding signal belongs to AGGAGCCCCCT ?
1.26

Record lookup: for RELB subunit;p52 subunit (Homo sapiens;Homo sapiens, UniProt Q01201;Q00653 120-401;4-332), what binding signal belongs to GAGGAAATCCT ?
-0.718

Record lookup: for RELB subunit;p52 subunit (Homo sapiens;Homo sapiens, UniProt Q01201;Q00653 120-401;4-332), what binding signal belongs to AAAAGCCTCCT ?
-0.999

Record lookup: for RELB subunit;p52 subunit (Homo sapiens;Homo sapiens, UniProt Q01201;Q00653 120-401;4-332), what binding signal belongs to AAATTGCTCCT ?
-0.7

Record lookup: for RELB subunit;p52 subunit (Homo sapiens;Homo sapiens, UniProt Q01201;Q00653 120-401;4-332), what binding signal belongs to GAGTGCGTCCT ?
-0.844

Record lookup: for RELB subunit;p52 subunit (Homo sapiens;Homo sapiens, UniProt Q01201;Q00653 120-401;4-332), what binding signal belongs to GAGAGGACCCC ?
-0.392

Record lookup: for RELB subunit;p52 subunit (Homo sapiens;Homo sapiens, UniProt Q01201;Q00653 120-401;4-332), what binding signal belongs to CAGAACTTCCC ?
0.0935

Record lookup: for RELB subunit;p52 subunit (Homo sapiens;Homo sapiens, UniProt Q01201;Q00653 120-401;4-332), what binding signal belongs to GGATGCGTCCT ?
-0.816

Record lookup: for RELB subunit;p52 subunit (Homo sapiens;Homo sapiens, UniProt Q01201;Q00653 120-401;4-332), what binding signal belongs to CGAATGTCCCC ?
1.17
